Recorded values, source ChEMBL document CHEMBL1123658.

assay: In vivo toxic effect was determined in mouse after intraperitoneal administration with 10% aqueous acacia gum; value ranges from 0.96-10.62; assay type: toxicity, organism-based; conditions: ip
Reported property: LD50 (µmol/kg)
Supply the numeric figure in µmol/kg, leaving out any unit text.

Task item: Item under review: `Nc1ccccc1NC(=O)CCN1CCN(c2ccccn2)CC1` . Reported LD50?
Reply: 3200
